Attribute: In vitro activity relative to native peptide (%) vs. GLP-1
Target: human GLP-1 receptor (human, UniProt P43220 24-463)
Experiment: cell-based or functional assay
Bridges are numbered along the chain shown (N, C = ends). Where no end group is shown, it is not given here. [ ]: non-standard residue; d: D form. The star is where a group is joined. Acetyl(2-(4-imidazolyl)) = O=C(Cc1c[nH]cn1)*; Aib = CC(C)(N)C(=O)O
The figure you give is taken to be in %; do not add the unit.

Answered examples (3):
Binder | Units | Observed Measurement
H[Aib]QGTFTSDYSIAMDEIHQKDFVNWLLAQKC (bridge 16-20) [triple agonist of SEQ ID NO: 33] | % | 24.5
H[Aib]QGTFTSDVSSYLDGQAQKEFIAWLVKGC [triple agonist of SEQ ID NO: 2] | % | 5.9
H[Aib]QGTFTSDCSKYLDERAAQDFVQWLLDGGPSSGAPPPS [triple agonist of SEQ ID NO: 25] | % | 82.6

Turning to the following binder.
Item {Acetyl(2-(4-imidazolyl))}-[Aib]QGTFTSDYSKYLDEKRQKEFVQWLLNTKC (bridge 15-19) [triple agonist of SEQ ID NO: 88] has what recorded In vitro activity relative to native peptide (%) vs. GLP-1?
9.6
